Provide the recorded Percent Effect for the entries that follow.
- TEST SYSTEM: Chromo domain-containing protein 1 (Saccharomyces cerevisiae (strain ATCC 204508 / S288c) (Baker's yeast)) (UniProt P32657)
- Sequence (P32657 whole entry, the tested form may be a part): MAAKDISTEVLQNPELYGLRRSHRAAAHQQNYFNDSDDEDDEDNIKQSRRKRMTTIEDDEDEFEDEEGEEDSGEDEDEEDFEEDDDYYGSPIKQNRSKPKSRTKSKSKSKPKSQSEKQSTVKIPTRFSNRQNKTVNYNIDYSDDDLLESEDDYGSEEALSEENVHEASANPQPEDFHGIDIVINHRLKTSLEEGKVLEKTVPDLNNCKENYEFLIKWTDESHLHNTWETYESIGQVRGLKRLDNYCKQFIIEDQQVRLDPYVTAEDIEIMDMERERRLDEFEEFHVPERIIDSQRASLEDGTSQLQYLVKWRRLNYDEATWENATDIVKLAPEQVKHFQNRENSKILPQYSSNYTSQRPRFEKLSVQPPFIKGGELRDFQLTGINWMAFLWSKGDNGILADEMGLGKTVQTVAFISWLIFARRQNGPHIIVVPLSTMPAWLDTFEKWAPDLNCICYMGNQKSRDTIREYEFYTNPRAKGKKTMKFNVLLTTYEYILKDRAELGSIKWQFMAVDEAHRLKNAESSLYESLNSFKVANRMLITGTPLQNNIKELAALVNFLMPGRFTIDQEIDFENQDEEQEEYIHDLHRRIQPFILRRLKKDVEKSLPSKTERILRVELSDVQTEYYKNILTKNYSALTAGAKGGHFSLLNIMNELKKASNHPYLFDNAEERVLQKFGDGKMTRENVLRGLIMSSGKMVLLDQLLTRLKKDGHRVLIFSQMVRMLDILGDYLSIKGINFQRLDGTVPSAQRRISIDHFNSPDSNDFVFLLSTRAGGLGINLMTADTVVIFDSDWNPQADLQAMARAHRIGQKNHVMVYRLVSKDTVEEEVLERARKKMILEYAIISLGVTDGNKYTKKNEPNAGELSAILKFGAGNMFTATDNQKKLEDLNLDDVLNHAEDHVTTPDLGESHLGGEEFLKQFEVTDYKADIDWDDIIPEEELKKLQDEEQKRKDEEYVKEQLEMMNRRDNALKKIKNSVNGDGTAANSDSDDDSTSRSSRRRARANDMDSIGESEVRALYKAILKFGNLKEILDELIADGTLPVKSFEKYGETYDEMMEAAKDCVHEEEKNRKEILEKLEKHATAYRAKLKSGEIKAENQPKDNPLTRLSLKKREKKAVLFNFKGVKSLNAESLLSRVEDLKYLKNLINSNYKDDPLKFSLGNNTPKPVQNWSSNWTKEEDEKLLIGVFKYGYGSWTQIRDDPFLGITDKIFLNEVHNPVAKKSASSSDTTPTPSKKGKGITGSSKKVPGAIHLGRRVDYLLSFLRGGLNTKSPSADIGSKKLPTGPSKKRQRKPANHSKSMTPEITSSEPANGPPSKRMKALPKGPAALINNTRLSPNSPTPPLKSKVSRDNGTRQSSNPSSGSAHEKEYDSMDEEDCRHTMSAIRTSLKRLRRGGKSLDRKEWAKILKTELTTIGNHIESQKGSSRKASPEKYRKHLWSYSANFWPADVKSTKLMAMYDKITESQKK
- ASSAY DETAILS: ScCHD-1 Enzyme Inhibition Assay
- Format: functional
- Design: scale not given: in the data most compounds retested in dose-response had high values
- CONDITION DETAILS: 30 µM
Numbers only here, please. The scale is %.

Could you share which Percent Effect value was measured for Cc1csc(CN2CC[C@H]3C[C@H](c4nnc(C)[nH]4)O[C@@H]3C2)n1 ?
-5.22

Could you share which Percent Effect value was measured for Cn1ccnc1CN1CCCN(C(=O)c2ccc(Cl)o2)CC1 ?
0.744

Could you share which Percent Effect value was measured for CCOc1cc(C(=O)N2CCCC(n3cncn3)C2)ccc1C (centres undefined) ?
11.6

Could you share which Percent Effect value was measured for Cc1nc(N2CCCCC2)ncc1C(=O)N1CC(C)(C)[C@@](C)(O)C1 ?
-1.76

Could you share which Percent Effect value was measured for O=C1C(NCc2nnc3n2CCCC3)CCCN1c1cccc(F)c1 (centres undefined) ?
-2.66

Could you share which Percent Effect value was measured for O=C(c1ccoc1)N1CC[C@@H]2[C@H]1CCC(=O)N2c1ccccc1 ?
-0.93

Could you share which Percent Effect value was measured for COCC1c2c(cnn2CC2CC2)CCN1Cc1ccc(OC)cc1 (centres undefined) ?
-3.58

Could you share which Percent Effect value was measured for CCc1n[nH]c(C2CN(C(=O)c3nc(C)ncc3Cl)CCO2)n1 (centres undefined) ?
2.12

Could you share which Percent Effect value was measured for Cc1noc(C)c1CCC(=O)N1CCCN(Cc2cscn2)CC1 ?
-10.5

Could you share which Percent Effect value was measured for COC(=O)CC(c1ccc(OC)c(OC)c1)c1oc(C)cc(=O)c1O (centres undefined) ?
-0.871

Could you share which Percent Effect value was measured for Cc1ccc(Cn2ccc(NS(C)(=O)=O)n2)cc1 ?
1.11

Could you share which Percent Effect value was measured for Cn1ccnc1CN1CCN(CC(O)c2cccc(F)c2)CC1 (centres undefined) ?
-11.3

Could you share which Percent Effect value was measured for Cc1ccc(N2CCN(C(=O)COc3nccc(C)n3)CC2)nn1 ?
-9.03

Could you share which Percent Effect value was measured for CCOCC1CN(C(=O)N(C)C)Cc2nn(C)cc21 (centres undefined) ?
-7.3

Could you share which Percent Effect value was measured for Cc1[nH]ncc1CCCNC(=O)Nc1ccc(C#N)cc1 ?
-1.92

Could you share which Percent Effect value was measured for CN(C)CCN1C[C@@H]2CN(C(=O)c3ccsc3)C[C@@H]2C1=O ?
1.29

Could you share which Percent Effect value was measured for Cc1nc(NC(=O)CN2CCc3c(nc(C(C)C)n3C)C2)sc1C ?
-1.68

Could you share which Percent Effect value was measured for O=C1CC(c2ccccc2)c2c(n3ccsc3nc2=O)N1 (centres undefined) ?
-7.95

Could you share which Percent Effect value was measured for Cc1nnc2n1CCN(C(C(=O)NC1CC1)c1ccccc1)C2 (centres undefined) ?
-2.99

Could you share which Percent Effect value was measured for CCc1ccc(C(=O)N2CCCC(c3noc(CC)n3)C2)o1 (centres undefined) ?
-10.5

Could you share which Percent Effect value was measured for COc1ccc(CN2C[C@H](OCC3CCOCC3)[C@H]3COC[C@H]32)cc1 ?
-1.49

Could you share which Percent Effect value was measured for CCCc1nc(CN2CCCC2Cn2cncn2)cs1 (centres undefined) ?
-3.42

Could you share which Percent Effect value was measured for O=C(O)c1cc(S(=O)(=O)Nc2cc(F)ccc2F)cc2c1OCCO2 ?
-3.53

Could you share which Percent Effect value was measured for CS(=O)(=O)N1CCC2(CC1)CC(CC(=O)N1CCCC1)c1ccccc12 (centres undefined) ?
2.73
